Reference for the values: the supplement of paper PMC9170038

System: MS2 coat protein
Experiment: apparent KD of MS2 coat protein; designed switch direction (-1 OFF switch, 1 ON switch): -1; higher = weaker reporter binding
Details: Eterna round: R95; input ligand: microRNA oligo, concentration not stated
measurementType: apparent KD of MS2 coat protein (µM)
Write the value in µM as a bare number.

# example entries with known answers
INSERT INTO results (residues, observedresult) VALUES
  ('GAGGAACAUGAGGAUCACCCAUGUGAGGAUAUGCAUAGUGAGGUAGUAGACGUUUAUUGCAGAAGGUACACUGA [JR_Exclu1_Sub079] (puzzle: Exclusion 1)', 0.0256),
  ('UAUGUGUGAGGAUAUGGUAAAGAUAAGAUGAUGAAAGAACUCCAGAAGGCACAUGAGGAUCACCCAUGUAGAUA [Mat - Exclusion 4 - Mod of JL - D23] (puzzle: Exclusion 4)', 0.0204),
  ('UCAUGGAAGCAGGAUAUGCUUGUUUAAUUGUUUGCAGAAGGGCUAACAUGAGGAUCACCCAUGUGAGAGGUCUA [JR_E6_Sub064] (puzzle: Exclusion 6)', 0.0338);

// apparent KD of MS2 coat protein lookup, key: GAUUAUGCGAGCUUUAGGGACAUGAGGAUCACCCAUGUUCGUCUUAUUGGUCUGAGUACACUAACAUACCUAAAUCU [JMF 15] (puzzle: Sensor v3, turn-off variant 1)
0.0264

Name the reported apparent KD of MS2 coat protein value associated with the sequence GCAUGUUAUGUCAGGAUAUACCUAUGGAUACAUAGGUAGAAGGGACAUGAGGAUCACCCAUGUCCUAACCAUGC [Fiskers BMX 4 - 22] (puzzle: Brourd's mod of Exclusion 4)
0.0114

Requested field: apparent KD of MS2 coat protein. Item: UCUCGACAUGAGGAUCACCCAUGUCAGGAUAUUGUGUUUGAGGUUUUUUACCUUUUGACAAGAAGGGAUGUGUG [LRO-Excl1-22] (puzzle: Exclusion 1)
0.0286
